target: Progesterone receptor (Ovis aries) (UniProt Q28590); experiment: Relative binding affinity to sheep progesterone receptor
Sequence (Q28590 whole entry): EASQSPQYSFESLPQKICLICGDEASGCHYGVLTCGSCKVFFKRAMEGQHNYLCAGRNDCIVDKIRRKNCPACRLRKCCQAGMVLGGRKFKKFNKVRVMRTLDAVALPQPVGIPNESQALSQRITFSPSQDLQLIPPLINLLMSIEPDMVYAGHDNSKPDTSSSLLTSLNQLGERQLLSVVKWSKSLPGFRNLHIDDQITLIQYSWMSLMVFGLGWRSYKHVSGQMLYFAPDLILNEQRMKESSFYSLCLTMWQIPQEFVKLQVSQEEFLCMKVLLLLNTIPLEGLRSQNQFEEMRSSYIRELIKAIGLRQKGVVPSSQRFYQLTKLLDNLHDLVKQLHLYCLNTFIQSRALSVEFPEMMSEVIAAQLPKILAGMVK
Form field: log(RBA) (one value per entry).
Reply briefly: the number, and no unit.

>>> observed_measurement("CC[C@@H]1C[C@H]2[C@@H]3C=CC4=CC(=O)CC[C@@H]4[C@H]3CC[C@]2(C)[C@H]1C(=O)CF")
2.13

Request: Write down log(RBA) measured for item C#C[C@]1(O)CC[C@H]2[C@@H]3CCC4=C(CCC(=O)C4)[C@H]3CC[C@@]21C
Result: 0.845

Request: Write down log(RBA) measured for item C#C[C@]1(OC(C)=O)CC[C@H]2[C@@H]3CCC4=CC(=O)CC[C@@H]4[C@H]3CC[C@@]21C
Result: 1.04

Request: Write down log(RBA) measured for item C#C[C@]1(O)CC[C@H]2[C@@H]3CCC4=CC(=O)CC[C@@H]4[C@H]3[C@@H](Cl)C[C@@]21C
Result: 2.06

Request: Write down log(RBA) measured for item C[C@]12CC[C@H]3[C@@H](CCC4=CC(=O)CC[C@@]43C)[C@@H]1CC[C@@H]2O
Result: 0

----------
biological target: Progesterone receptor (Oryctolagus cuniculus) (UniProt P06186); experiment: Relative binding affinity to rabbit progesterone receptor
Respond with YES for log(RBA) values of 1 and above, NO for values below.

>>> assigned_label("C#C[C@]1(OC(C)=O)CC[C@H]2[C@@H]3CCC4=CC(=O)CC[C@@H]4[C@H]3CC[C@@]21C")
"YES"

Request: Exam item: decide whether the reported log(RBA) for C#C[C@]1(O)CC[C@H]2[C@@H]3CCC4=CC(=O)CC[C@@H]4[C@H]3[C@@H](Cl)C[C@@]21C is at least 1.
Result: YES

Request: Exam item: decide whether the reported log(RBA) for C[C@]12CCC(=O)C=C1CC[C@@H]1[C@@H]2CC[C@]2(C)C(=O)CC[C@@H]12 is at least 1.
Result: NO

Request: Exam item: decide whether the reported log(RBA) for C#C[C@]1(O)CC[C@H]2[C@@H]3CC[C@@H]4C[C@H](O)CC[C@@H]4[C@H]3CC[C@@]21C is at least 1.
Result: NO

Request: Exam item: decide whether the reported log(RBA) for CC(=O)[C@H]1CC[C@H]2[C@@H]3CCC4=CC(=O)CCC4=C3CC[C@]12C is at least 1.
Result: YES

Request: Exam item: decide whether the reported log(RBA) for CC(=O)O[C@]1(C(C)=O)CC[C@H]2[C@@H]3C=C(C)C4=CC(=O)CC[C@]4(C)[C@H]3CC[C@@]21C is at least 1.
Result: YES

Request: Exam item: decide whether the reported log(RBA) for C#C[C@]1(O)CC[C@H]2[C@@H]3CCC4=C[C@@H](O)CC[C@@H]4[C@H]3CC[C@@]21C is at least 1.
Result: YES

Request: Exam item: decide whether the reported log(RBA) for CC(=O)[C@H]1CC[C@H]2[C@@H]3CCC4=CC(=O)CCC4=C3C=C[C@]12C is at least 1.
Result: YES

----------
target: Progesterone receptor (Oryctolagus cuniculus) (UniProt P06186); test: Relative binding affinity to rabbit progesterone receptor
property-name: log(RBA)
Reply briefly: the number, and no unit.

>>> observed_measurement("CC[C@@H]1C[C@H]2[C@@H]3C=CC4=CC(=O)CC[C@@H]4[C@H]3CC[C@]2(C)[C@H]1C(=O)CF")
2.24
>>> observed_measurement("C#C[C@]1(O)CC[C@H]2[C@@H]3[C@H](C)CC4=C(CCC(=O)C4)[C@H]3CC[C@@]21C")
0.903

Request: Write down log(RBA) measured for item C[C@H](O)[C@H]1CC[C@H]2[C@@H]3CCC4=CC(=O)CC[C@]4(C)[C@H]3CC[C@]12C
Result: 0.778

Request: Write down log(RBA) measured for item CC(=O)[C@@]1(C)CC[C@H]2[C@@H]3CCC4=CC(=O)CC[C@@H]4[C@H]3CC[C@@]21C
Result: 2.7

----------
Form field: log(RBA) (one value per entry).
target: Progesterone receptor (Ovis aries); assay: Relative binding affinity to sheep progesterone receptor
Reply briefly: the number, and no unit.

Some molecules with known log(RBA) results, for comparison:
>>> observed_measurement("CC(=O)[C@H]1CC[C@H]2[C@@H]3CCC4=CC(=O)C=C[C@]4(C)[C@H]3CC[C@]12C")
1.2
>>> observed_measurement("C#C[C@]1(O)CC[C@H]2[C@@H]3CCC4=CCCC[C@@H]4[C@H]3CC[C@@]21C")
0.602
>>> observed_measurement("CC(=O)[C@H]1CC[C@H]2[C@@H]3CC[C@H]4CC(=O)CC[C@]4(C)[C@H]3CC[C@]12C")
1.48
>>> observed_measurement("C[C@]1(O)CC[C@H]2[C@@H]3CCC4=CCCC[C@@H]4[C@H]3CC[C@@]21C")
0.778
>>> observed_measurement("CC(=O)O[C@]1(C(C)=O)CC[C@H]2[C@@H]3CCC4=C(O)C(=O)CC[C@]4(C)[C@H]3CC[C@@]21C")
1.2
>>> observed_measurement("C[C@@H](O)[C@H]1CC[C@H]2[C@@H]3CCC4=CC(=O)CC[C@]4(C)[C@H]3CC[C@]12C")
0
>>> observed_measurement("CC(=O)[C@H]1CC[C@H]2[C@@H]3CCC4=CC(=O)CC[C@]4(CO)[C@H]3CC[C@]12C")
-0.52
>>> observed_measurement("CC[C@@H]1C[C@H]2[C@@H]3CCC4=CC(=O)CC[C@]4(C)[C@H]3CC[C@]2(C)[C@H]1C(C)=O")
1.87
>>> observed_measurement("CC(=O)[C@H]1CC[C@H]2[C@@H]3CCC4=CC(=O)CC[C@]4(C)[C@H]3CC(=O)[C@]12C")
-1
>>> observed_measurement("C#C[C@]1(O)CC[C@H]2[C@@H]3CCC4=C[C@@H](O)CC[C@@H]4[C@H]3CC[C@@]21C")
1

Next, consider the following molecule.
Request: Print Progesterone receptor (Ovis aries) log(RBA) for C#C[C@]1(O)CC[C@H]2[C@@H]3[C@H](C)CC4=C(CCC(=O)C4)[C@H]3CC[C@@]21C .
Result: 0.7

----------
Target: Progesterone receptor (Oryctolagus cuniculus)
Sequence (whole entry): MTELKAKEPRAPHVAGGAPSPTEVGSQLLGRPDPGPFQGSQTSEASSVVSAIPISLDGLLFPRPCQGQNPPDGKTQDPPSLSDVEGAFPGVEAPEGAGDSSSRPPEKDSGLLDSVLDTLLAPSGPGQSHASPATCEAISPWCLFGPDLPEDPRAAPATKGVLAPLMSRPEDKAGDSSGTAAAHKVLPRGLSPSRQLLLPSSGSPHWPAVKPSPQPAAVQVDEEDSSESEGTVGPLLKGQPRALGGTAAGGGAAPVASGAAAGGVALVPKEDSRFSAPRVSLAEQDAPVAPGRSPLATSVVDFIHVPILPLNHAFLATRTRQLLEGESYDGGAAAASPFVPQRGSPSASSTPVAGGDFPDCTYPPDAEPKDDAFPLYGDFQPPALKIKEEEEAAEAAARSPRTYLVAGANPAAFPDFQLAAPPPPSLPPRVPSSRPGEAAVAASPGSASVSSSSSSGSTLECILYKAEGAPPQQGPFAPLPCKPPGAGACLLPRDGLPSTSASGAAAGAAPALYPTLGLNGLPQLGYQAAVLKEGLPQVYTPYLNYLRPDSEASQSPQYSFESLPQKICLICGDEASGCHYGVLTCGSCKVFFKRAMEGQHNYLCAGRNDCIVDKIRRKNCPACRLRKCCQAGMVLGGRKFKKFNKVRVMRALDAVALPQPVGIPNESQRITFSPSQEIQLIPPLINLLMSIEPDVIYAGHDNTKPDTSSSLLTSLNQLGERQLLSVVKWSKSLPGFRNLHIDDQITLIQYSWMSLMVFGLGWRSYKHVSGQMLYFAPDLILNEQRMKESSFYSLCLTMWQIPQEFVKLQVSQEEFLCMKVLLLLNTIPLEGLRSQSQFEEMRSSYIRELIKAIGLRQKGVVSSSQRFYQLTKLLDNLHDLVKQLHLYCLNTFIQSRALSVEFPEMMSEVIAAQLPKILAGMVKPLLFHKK
Test: Relative binding affinity to rabbit progesterone receptor
Respond with yes (1) for log(RBA) values of 2 and above, no (0) for values below.

Request: Exam item: decide whether the reported log(RBA) for C#C[C@]1(O)CC[C@H]2[C@@H]3CCC4=CC(=O)CC[C@@H]4[C@H]3CC[C@@]21CCC is at least 2.
Result: no (0)

----------
organism: Cavia porcellus; experiment: Relative binding affinity to guinea pig progesterone receptor
Form field: log(RBA) (one value per entry).
Reply briefly: the number, and no unit.

Some compounds with known log(RBA) results, for comparison:
>>> observed_measurement("CC[C@@H]1C[C@H]2[C@@H]3C=CC4=CC(=O)CC[C@@H]4[C@H]3CC[C@]2(C)[C@H]1C(=O)CF")
1.17
>>> observed_measurement("CC(=O)[C@H]1CC[C@H]2[C@@H]3CCC4=CC(=O)CC[C@]4(C)[C@H]3[C@H](O)C[C@]12C")
-0.097

Request: Write down log(RBA) measured for item C[C@H](O)[C@H]1CC[C@H]2[C@@H]3CCC4=CC(=O)CC[C@]4(C)[C@H]3CC[C@]12C
Result: 0.6

Request: Write down log(RBA) measured for item C[C@]12CC[C@H]3[C@@H](CCC4=CC(=O)CC[C@@]43C)[C@@H]1CC[C@@H]2O
Result: 0

Request: Write down log(RBA) measured for item C#C[C@]1(OC(C)=O)CC[C@H]2[C@@H]3CCC4=CCCC[C@@H]4[C@H]3CC[C@@]21C
Result: -2

Request: Write down log(RBA) measured for item C[C@]12CC[C@H]3[C@@H](CCC4=CC(=O)CC[C@@]43C)[C@@H]1CC[C@@H]2C(=O)CO
Result: 1.15

Request: Write down log(RBA) measured for item CC(=O)O[C@]1(C(C)=O)CC[C@H]2[C@@H]3C=C(Cl)C4=CC(=O)CC[C@]4(C)[C@H]3CC[C@@]21C
Result: -0.097

Request: Write down log(RBA) measured for item C=CC[C@]1(O)CC[C@H]2[C@@H]3CCC4=CCCC[C@@H]4[C@H]3CC[C@@]21C
Result: -0.7

Request: Write down log(RBA) measured for item CC(=O)[C@@]1(O)CC[C@H]2[C@@H]3CCC4=CC(=O)CC[C@]4(C)[C@H]3CC[C@@]21C
Result: -0.52

Origin of the recorded values: ChEMBL document CHEMBL3272135
